Assignment: determine reported CC50 at 5 days for the given compounds.
ASSAY INFO: Cytotoxicity in the cytopathic model, without virus infection (CellTiter Glo)
CONDITIONS USED: human

Requested read-out: CC50 at 5 days. Entry: N#C[C@H](C[C@@H]1CCNC1=O)NC(=O)[C@@H]1[C@H]2CC[C@H](C2)N1C(=O)[C@@H](NC(=O)C(F)(F)F)C12CC3CC(CC(C3)C1)C2
> 10 µM

Request the reported CC50 at 5 days associated with N#C[C@H](C[C@@H]1CCNC1=O)NC(=O)[C@@H]1[C@H]2CC[C@H](C2)N1C(=O)[C@@H](NC(=O)C(F)(F)F)C12CCC(CC1)CC2
> 10 µM

Record request: CC50 at 5 days value, item CC1C[C@H]2C[C@@H]1N(C(=O)[C@@H](NC(=O)C(F)(F)F)C(C)(C)C)[C@@H]2C(=O)N[C@H](C#N)C[C@@H]1CCNC1=O (stereo partly drawn)
> 10 µM

====

Set-up: species or system C57BL/6J male mice
CONDITIONS USED: mouse, in vivo, po, 10 mg/kg
ENDPOINT: Cmax
Write the numeric value and append its unit.

Requested read-out: Cmax. Entry: CC(C)(C)[C@H](NC(=O)C(F)(F)F)C(=O)N1[C@H]2C[C@@H]([C@H]1C(=O)N[C@H](C#N)C[C@@H]1CCNC1=O)C1(CC1)C2
1860 nM

====

Kindly state EC50 for each of the entries shown.
Test system: SARS-CoV-2 virus (Novel coronavirus βCoV/KOR/KCDC03/2020 strain)
ASSAY INFO: Anti-novel coronavirus activity in Vero cells (immunofluorescence, high-content imaging)
Format: cell-based
CONDITIONS USED: Severe acute respiratory syndrome coronavirus 2, wild-type novel coronavirus, MOI=0.0125, 24 hours
Number only, in nM; omit the unit.

If you can, please state the reported EC50 value of N#C[C@H](C[C@@H]1CCNC1=O)NC(=O)[C@@H]1[C@H]2CC[C@H](C2)N1C(=O)[C@@H](NC(=O)C(F)(F)F)C12CC3CC(CC(C3)C1)C2 [Compound 3] .
35

For the compound shown here, CC1C[C@H]2C[C@@H]1N(C(=O)[C@@H](NC(=O)C(F)(F)F)C(C)(C)C)[C@@H]2C(=O)N[C@H](C#N)C[C@@H]1CCNC1=O (stereo partly drawn) [Compound 5] , give the reported EC50.
20

State the recorded EC50 for this entry: N#C[C@H](C[C@@H]1CCNC1=O)NC(=O)[C@@H]1[C@H]2CC[C@H](C2)N1C(=O)[C@@H](NC(=O)C(F)(F)F)C12CCC(CC1)CC2 [Compound 4]
30

====

Record form. Attribute: IC50. Fill in for each entry.
SYSTEM TESTED: SARS-CoV-2 Mpro (Severe acute respiratory syndrome coronavirus 2 (2019-nCoV) (SARS-CoV-2))
ASSAY INFO: In vitro anti-novel coronavirus Mpro protease activity (fluorescent substrate cleavage)
Assay type: biochemical
Procedure: The compound was dissolved in DMSO, and diluted in a 3-fold gradient with Echo655 according to the concentration requirements to 10 concentration points, and duplicate tests were set at each concentration, and the diluted solution was added to a 384-well plate. […] After incubating for 60 minutes in a 30° C. constant temperature incubator, the fluorescence signal value of Ex/Em=340 nm/490 nm was detected by microplate reader. […]
// return numeric value only (unit: µM, not printed)

Look at this compound and give its reported IC50. N#C[C@H](C[C@@H]1CCNC1=O)NC(=O)[C@@H]1[C@H]2CC[C@H](C2)N1C(=O)[C@@H](NC(=O)C(F)(F)F)C12CCC(CC1)CC2
0.053

Fill blank: measured IC50 of the compound CC(C)(C)[C@H](NC(=O)C(F)(F)F)C(=O)N1[C@H]2C[C@@H]([C@H]1C(=O)N[C@H](C#N)C[C@@H]1CCNC1=O)C(F)(F)C2 is ____.
0.135

GET /values?readout=IC50&item= CC1([C@H](NC(=O)C(F)(F)F)C(=O)N2[C@@H]3CC[C@@H](C3)[C@H]2C(=O)N[C@H](C#N)C[C@@H]2CCNC2=O)CCCCC1
0.062

What value of IC50 has been reported for the following compound? N#C[C@H](C[C@@H]1CCNC1=O)NC(=O)[C@@H]1[C@H]2CC[C@H](C2)N1C(=O)[C@@H](NC(=O)C(F)(F)F)C12CC3CC(CC(C3)C1)C2
0.021

====

System: Vero cells
CONDITIONS USED: 24 hours
ENDPOINT: CC50

Record request: CC50 value, item CC(C)(C)[C@H](NC(=O)C(F)(F)F)C(=O)N1[C@H]2C[C@@H]([C@H]1C(=O)N[C@H](C#N)C[C@@H]1CCNC1=O)C1(CC1)C2
> 5 µM

====

SYSTEM TESTED: SARS-CoV-2 Mpro (Severe acute respiratory syndrome coronavirus 2 (2019-nCoV) (SARS-CoV-2))
ASSAY INFO: In vitro anti-novel coronavirus Mpro protease activity (fluorescent substrate cleavage)
Type: biochemical
CONDITIONS USED: 25 nM Mpro protein, 25 µM substrate; read-out: IC50
ENDPOINT: IC50 (nM)
Enter your answer as a number in nM; do not include the unit.

Need IC50 of CC(C)(C)[C@H](NC(=O)C(F)(F)F)C(=O)N1[C@H]2C[C@@H]([C@H]1C(=O)N[C@H](C#N)C[C@@H]1CCNC1=O)C(F)(F)C2 [Compound 10] , thanks.
17

For the compound Cc1ccc(CC(=O)N[C@H](C(=O)N2[C@@H]3CC[C@@H](C3)[C@H]2C(=O)N[C@H](C#N)C[C@@H]2CCNC2=O)C23CC4CC(CC(C4)C2)C3)cc1 [Compound 13] , what IC50 is on record?
75

Quick one: IC50 for CC1C[C@@H]2C[C@H]1[C@@H](C(=O)N[C@H](C#N)C[C@@H]1CCNC1=O)N2C(=O)[C@@H](NC(=O)C(F)(F)F)C12CC3CC(CC(C3)C1)C2 (stereo partly shown) [Compound 12] ?
17

Could you share which IC50 value was measured for CC(C)(C)[C@H](NC(=O)C(F)(F)F)C(=O)N1[C@H]2C[C@@H]([C@H]1C(=O)N[C@H](C#N)C[C@@H]1CCNC1=O)C1(CC1)C2 [Compound 11] ?
5.4

====

Set-up: species or system C57BL/6J male mice
CONDITIONS USED: mouse, in vivo, po, 10 mg/kg
ENDPOINT: Cmax (µM)
Reply with just the number (in µM).

Recorded Cmax of CC(C)(C)[C@H](NC(=O)C(F)(F)F)C(=O)N1[C@H]2C[C@@H]([C@H]1C(=O)N[C@H](C#N)C[C@@H]1CCNC1=O)C1(CC1)C2 [Compound 11] , please.
10.1

====

Tested on: MRC5 cells
ENDPOINT: CC50

Any idea what CC50 came out for CC(C)(C)[C@H](NC(=O)C(F)(F)F)C(=O)N1[C@H]2C[C@@H]([C@H]1C(=O)N[C@H](C#N)C[C@@H]1CCNC1=O)C1(CC1)C2 on MRC5 cells?
> 10 µM
